System: OVCAR-3
Experiment: Cytotoxicity against human OVCAR3 cells assessed as growth inhibition at 10 uM after 48 hrs by coulter counter analysis
Format: functional
Conditions: OVCAR-3, 48 h, read-out: GI
inhibition of growth at 10 µM values by entry
// units = %; emit number, no label

Completed entries (count: 6):
CC(=O)c1ccc(NC(=O)CSc2nc3ccccc3c(=O)n2CCc2ccccc2)cc1 | 23
CCOC(=O)c1ccc(NC(=O)CSc2nc3ccccc3c(=O)n2CCc2ccccc2)cc1 | 13
O=C(CSc1nc2ccccc2c(=O)n1CCc1ccccc1)NCc1ccccc1 | 10
COc1cc(NC(=O)CCSc2nc3ccccc3c(=O)n2CCc2ccccc2)cc(OC)c1OC | 11
COc1ccc(NC(=O)CSc2nc3ccccc3c(=O)n2CCc2ccccc2)cc1 | 10
O=C(CSc1nc2ccccc2c(=O)n1CCc1ccccc1)Nc1ccc(Cl)cc1 | 32

Consider the record given below.
Indicate the recorded inhibition of growth at 10 µM value for this compound: `O=C(CSc1nc2ccccc2c(=O)n1CCc1ccccc1)Nc1ccccc1C(=O)O`
29

---

Tested on: UACC-62
Assay: Cytotoxicity against human UACC62 cells assessed as growth inhibition at 10 uM after 48 hrs by coulter counter analysis
Assay type: functional
Conditions: UACC-62, 48 h, read-out: GI
// reported inhibition of growth at 10 µM per item
The answer is to be given in %; state only the numeric part.

Recorded inhibition of growth at 10 µM, per entry:
O=C(CSc1nc2ccccc2c(=O)n1CCc1ccccc1)Nc1ccccc1 | 16
O=C(CSc1nc2ccccc2c(=O)n1CCc1ccccc1)Nc1ccccc1C(=O)O | 21
COc1cc(NC(=O)CSc2nc3ccccc3c(=O)n2CCc2ccccc2)cc(OC)c1OC | 25
O=C(CSc1nc2ccccc2c(=O)n1CCc1ccccc1)Nc1ccc(F)cc1 | 25
O=C(CSc1nc2ccccc2c(=O)n1CCc1ccccc1)Oc1ccccc1 | 19
CCOC(=O)c1ccc(NC(=O)CSc2nc3ccccc3c(=O)n2CCc2ccccc2)cc1 | 29

Specify reported inhibition of growth at 10 µM for the molecule shown: `O=C(CSc1nc2ccccc2c(=O)n1CCc1ccccc1)Oc1ccc(Cl)cc1`
11

Give the reported inhibition of growth at 10 µM for this molecule. `Cc1ccc(NC(=O)CSc2nc3ccccc3c(=O)n2CCc2ccccc2)cc1`
20

Annotate the molecule `COc1cc(NC(=O)CCSc2nc3ccccc3c(=O)n2CCc2ccccc2)cc(OC)c1OC` with its measured inhibition of growth at 10 µM.
30

Give the value of inhibition of growth at 10 µM reported for the following: `O=C(CSc1nc2ccccc2c(=O)n1CCc1ccccc1)NCc1ccccc1`
29

// fetch inhibition of growth at 10 µM given entry `O=C(CSc1nc2ccccc2c(=O)n1CCc1ccccc1)Nc1ccc(Cl)cc1`
34

Give the reported inhibition of growth at 10 µM for this molecule. `COc1ccc(NC(=O)CSc2nc3ccccc3c(=O)n2CCc2ccccc2)cc1`
13

Given `CC(=O)c1ccc(NC(=O)CSc2nc3ccccc3c(=O)n2CCc2ccccc2)cc1` , respond with its inhibition of growth at 10 µM.
28

Please indicate inhibition of growth at 10 µM recorded for `COc1cc(OC(=O)CSc2nc3ccccc3c(=O)n2CCc2ccccc2)cc(OC)c1OC`
23

---

Reported inhibition of growth at 10 µM is given for each of the following compounds.
Tested on: Malme-3M
Experiment: Cytotoxicity against human MALME-3M cells assessed as growth inhibition at 10 uM after 48 hrs by coulter counter analysis
Type: functional
Settings: read-out: GI
Quick note: give the figure in %, leave out the unit.

COc1cc(NC(=O)CSc2nc3ccccc3c(=O)n2CCc2ccccc2)cc(OC)c1OC | 59
O=C(CSc1nc2ccccc2c(=O)n1CCc1ccccc1)Nc1ccccc1C(=O)O | 18
O=C(CSc1nc2ccccc2c(=O)n1CCc1ccccc1)NCc1ccccc1 | 14
COc1cc(NC(=O)CCSc2nc3ccccc3c(=O)n2CCc2ccccc2)cc(OC)c1OC | 77
CCOc1ccc(NC(=O)CSc2nc3ccccc3c(=O)n2CCc2ccccc2)cc1 | 37

// below: inhibition of growth at 10 µM requested for another compound
Please tell me the measured inhibition of growth at 10 µM for `CCOC(=O)c1ccc(NC(=O)CSc2nc3ccccc3c(=O)n2CCc2ccccc2)cc1` ; system: Malme-3M.
23

---

We begin with a simple list: items and their reported inhibition of growth at 10 µM.
Tested on: 786-0
Assay: Cytotoxicity against human 786-0 cells assessed as growth inhibition at 10 uM after 48 hrs by coulter counter analysis
Type: functional
Settings: 786-0, 48 h, read-out: GI

Guide cases for inhibition of growth at 10 µM, answers given:
COc1cc(NC(=O)CSc2nc3ccccc3c(=O)n2CCc2ccccc2)cc(OC)c1OC | > 100%
O=C(CSc1nc2ccccc2c(=O)n1CCc1ccccc1)Nc1ccc(Cl)cc1 | 13%
COc1cc(OC(=O)CSc2nc3ccccc3c(=O)n2CCc2ccccc2)cc(OC)c1OC | < 10%
COc1cc(NC(=O)CCSc2nc3ccccc3c(=O)n2CCc2ccccc2)cc(OC)c1OC | 29%

Now look at this entry.
// Input: `O=C(CSc1nc2ccccc2c(=O)n1CCc1ccccc1)NCc1ccccc1` . Output its inhibition of growth at 10 µM only.
15%

---

System: 786-0
Experiment: Cytotoxicity against human 786-0 cells assessed as growth inhibition at 10 uM after 48 hrs by coulter counter analysis
Format: functional
Details: 786-0, 48 h, read-out: GI
Form field: inhibition of growth at 10 µM (one value per entry).

COc1ccc(NC(=O)CSc2nc3ccccc3c(=O)n2CCc2ccccc2)cc1 | < 10%
O=C(CSc1nc2ccccc2c(=O)n1CCc1ccccc1)Oc1ccccc1 | 13%
O=C(CSc1nc2ccccc2c(=O)n1CCc1ccccc1)Nc1ccccc1 | < 10%
CCOc1ccc(NC(=O)CSc2nc3ccccc3c(=O)n2CCc2ccccc2)cc1 | < 10%
CCOC(=O)c1ccc(NC(=O)CSc2nc3ccccc3c(=O)n2CCc2ccccc2)cc1 | < 10%

Please report inhibition of growth at 10 µM with 786-0 for item `O=C(CSc1nc2ccccc2c(=O)n1CCc1ccccc1)Nc1ccccc1C(=O)O` .
16%

For 786-0, give inhibition of growth at 10 µM of the listed compound: `Cc1ccc(NC(=O)CSc2nc3ccccc3c(=O)n2CCc2ccccc2)cc1`
< 10%

Provide inhibition of growth at 10 µM, system 786-0, entry `O=C(CSc1nc2ccccc2c(=O)n1CCc1ccccc1)Nc1ccc(F)cc1`
< 10%

State measured inhibition of growth at 10 µM of the compound `CC(=O)c1ccc(NC(=O)CSc2nc3ccccc3c(=O)n2CCc2ccccc2)cc1` with 786-0.
< 10%

Return reported inhibition of growth at 10 µM for target or system 786-0, item `O=C(CSc1nc2ccccc2c(=O)n1CCc1ccccc1)Nc1cc(Cl)ccc1C(=O)O` .
< 10%

Report the value of inhibition of growth at 10 µM obtained on 786-0 for `O=C(CSc1nc2ccccc2c(=O)n1CCc1ccccc1)Oc1ccc(Cl)cc1` .
< 10%

---

Tested on: U-251
Assay: Cytotoxicity against human U251 cells assessed as growth inhibition at 10 uM after 48 hrs by coulter counter analysis
Type: functional
Settings: U-251, 48 h, read-out: GI
measurement type: inhibition of growth at 10 µM

In the examples that follow, each entry is paired with its recorded inhibition of growth at 10 µM.
O=C(CSc1nc2ccccc2c(=O)n1CCc1ccccc1)Nc1ccc(F)cc1 | 17%
O=C(CSc1nc2ccccc2c(=O)n1CCc1ccccc1)Oc1ccc(Cl)cc1 | < 10%
CC(=O)c1ccc(NC(=O)CSc2nc3ccccc3c(=O)n2CCc2ccccc2)cc1 | 10%
COc1cc(NC(=O)CCSc2nc3ccccc3c(=O)n2CCc2ccccc2)cc(OC)c1OC | 25%

Give a short answer stating reported inhibition of growth at 10 µM for `CCOc1ccc(NC(=O)CSc2nc3ccccc3c(=O)n2CCc2ccccc2)cc1` .
27%

---

Measured inhibition of growth at 10 µM by item
Tested on: HT-29
Assay: Cytotoxicity against human HT-29 cells assessed as growth inhibition at 10 uM after 48 hrs by coulter counter analysis
Type: functional
Settings: HT-29, 48 h, read-out: GI

// below: answered compounds
O=C(CSc1nc2ccccc2c(=O)n1CCc1ccccc1)Oc1ccc(Cl)cc1 | < 10%
O=C(CSc1nc2ccccc2c(=O)n1CCc1ccccc1)Nc1ccccc1C(=O)O | 11%
O=C(CSc1nc2ccccc2c(=O)n1CCc1ccccc1)NCc1ccccc1 | < 10%

Specify measured inhibition of growth at 10 µM for `O=C(CSc1nc2ccccc2c(=O)n1CCc1ccccc1)Nc1cc(Cl)ccc1C(=O)O` .
< 10%

Fill in reported inhibition of growth at 10 µM for this entry: `CCOc1ccc(NC(=O)CSc2nc3ccccc3c(=O)n2CCc2ccccc2)cc1`
10%

Let me know recorded inhibition of growth at 10 µM for `Cc1ccc(NC(=O)CSc2nc3ccccc3c(=O)n2CCc2ccccc2)cc1` , thanks.
< 10%

Determine its reported inhibition of growth at 10 µM: `COc1ccc(NC(=O)CSc2nc3ccccc3c(=O)n2CCc2ccccc2)cc1`
< 10%
